# targetOfAssay: GTPase KRas (Homo sapiens)
# assaySummary: Inhibition of KRas in human Colon 320 cells at 0.2 uM relative to control
# Assay type: cell-based
Listed here are molecules together with their documented inhibition.
experimentalEndpoint: inhibition (%)

INSERT INTO measurements (molecule, readingunit, quantitativereadout) VALUES
  ('COc1cc(C2c3cc4c(cc3CCN2CCO)OCCO4)cc(OC)c1OC (stereo not given)', '%', 12.2),
  ('COc1cc(C2c3cc4c(cc3CCN2CCN)OCCO4)cc(OC)c1OC (stereo not given)', '%', 0),
  ('COc1cc(C2c3cc4c(cc3CCN2c2ccc(C#N)cc2)OCCO4)cc(OC)c1OC (stereo not given)', '%', 0),
  ('COc1cc(C2c3cc4c(cc3CCN2c2ccc([N+](=O)[O-])cc2)OCCO4)cc(OC)c1OC (stereo not given)', '%', 0),
  ('COc1cc(C2c3cc4c(cc3CCN2CC#N)OCCO4)cc(OC)c1OC (stereo not given)', '%', 0);

---

Listed here are compounds together with their documented inhibition.
# targetOfAssay: GTPase KRas (Homo sapiens) (UniProt P01116)
# Sequence (P01116 whole entry, looked up): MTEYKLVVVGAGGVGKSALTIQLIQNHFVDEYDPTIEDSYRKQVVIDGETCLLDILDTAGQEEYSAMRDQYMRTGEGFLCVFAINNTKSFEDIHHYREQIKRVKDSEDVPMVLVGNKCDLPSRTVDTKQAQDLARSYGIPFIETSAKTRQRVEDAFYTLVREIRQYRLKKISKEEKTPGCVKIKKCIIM
# assaySummary: Inhibition of KRas in human SNU-C1 cells at 0.2 uM relative to control
# Type: cell-based
experimentalEndpoint: inhibition (%)

INSERT INTO results (compound, readingunit, quantitativereadout) VALUES
  ('COc1cc(C2c3cc4c(cc3CCN2CCN)OCCO4)cc(OC)c1OC (stereo not given)', '%', 12.2),
  ('COc1cc(C2c3cc4c(cc3CCN2c2ccc(C#N)cc2)OCCO4)cc(OC)c1OC (stereo not given)', '%', 6.6),
  ('COc1cc(C2c3cc4c(cc3CCN2c2ccc([N+](=O)[O-])cc2)OCCO4)cc(OC)c1OC (stereo not given)', '%', 17.7),
  ('COc1cc(C2c3cc4c(cc3CCN2CC#N)OCCO4)cc(OC)c1OC (stereo not given)', '%', 10),
  ('COc1cc(C2c3cc4c(cc3CCN2CCO)OCCO4)cc(OC)c1OC (stereo not given)', '%', 12.3);

---

# Tested on: L1210
# assaySummary: Cytotoxicity against mouse L1210 cells after 48 hrs by coulter counter method
# Assay type: functional, cell-based
# runParameters: L1210, 48 h
pIC50: −log10 of the molar value.
Please mark Satisfied if the recorded pIC50 is equal to or greater than 5, and Not satisfied if it falls below.

INSERT INTO measurements (compound, targetofassay, classname) VALUES
  ('COc1cc2c(c3c1c(=O)c1ccccc1n3C)C=CC(C)(C)O2 [ACRONINE]', 'L1210', 'Not satisfied'),
  ('COc1cc(C2c3cc4c(cc3CCN2CC#N)OCCO4)cc(OC)c1OC (stereo not given)', 'L1210', 'Satisfied'),
  ('COc1cc(C2c3cc4c(cc3CCN2c2ccc(C#N)cc2)OCCO4)cc(OC)c1OC (stereo not given)', 'L1210', 'Satisfied'),
  ('COc1cc(C2c3cc4c(cc3CCN2CCN)OCCO4)cc(OC)c1OC (stereo not given)', 'L1210', 'Satisfied'),
  ('CCOC(=O)N1CCc2cc3c(cc2C1c1cc(OC)c(OC)c(OC)c1)OCCO3 (stereo not given)', 'L1210', 'Not satisfied'),
  ('COc1cc(C2c3cc4c(cc3CCN2c2ccc([N+](=O)[O-])cc2)OCCO4)cc(OC)c1OC (stereo not given)', 'L1210', 'Satisfied'),
  ('CCOC(=O)CCCCCN1CCc2cc3c(cc2C1c1cc(OC)c(OC)c(OC)c1)OCCO3 (stereo not given)', 'L1210', 'Not satisfied'),
  ('COc1cc(-c2nccc3cc4c(cc23)OCCO4)cc(OC)c1OC', 'L1210', 'Not satisfied'),
  ('CCN(CC)CCN1CCc2cc3c(cc2C1c1cc(OC)c(OC)c(OC)c1)OCCO3 (stereo not given)', 'L1210', 'Satisfied');

---

# targetOfAssay: GTPase KRas (Homo sapiens)
# assaySummary: Inhibition of KRas in human SNU-C1 cells at 2 uM relative to control
# Assay type: cell-based
experimentalEndpoint: inhibition (%)

INSERT INTO results (compound, quantitativereadout) VALUES
  ('COc1cc(C2c3cc4c(cc3CCN2CC#N)OCCO4)cc(OC)c1OC (stereo not given)', 6),
  ('COc1cc(C2c3cc4c(cc3CCN2c2ccc([N+](=O)[O-])cc2)OCCO4)cc(OC)c1OC (stereo not given)', 35),
  ('COc1cc(C2c3cc4c(cc3CCN2CCO)OCCO4)cc(OC)c1OC (stereo not given)', 11.5),
  ('COc1cc(C2c3cc4c(cc3CCN2c2ccc(C#N)cc2)OCCO4)cc(OC)c1OC (stereo not given)', 32.5),
  ('COc1cc(C2c3cc4c(cc3CCN2CCN)OCCO4)cc(OC)c1OC (stereo not given)', 2.4);

---

# System: L1210
# assaySummary: Cytotoxicity against mouse L1210 cells after 48 hrs by coulter counter method
# Type: functional, cell-based
# runParameters: L1210, 48 h
experimentalEndpoint: IC50

INSERT INTO results (compound, result) VALUES
  ('CCOC(CCN1CCc2cc3c(cc2C1c1cc(OC)c(OC)c(OC)c1)OCCO3)OCC (centres undefined)', '> 10 µM'),
  ('COC(=O)CCCCCN1CCc2cc3c(cc2C1c1ccncc1)OCCO3 (centres undefined)', '> 10 µM'),
  ('O=C(O)CCCCCN1CCc2cc3c(cc2C1c1ccncc1)OCCO3 (centres undefined)', '> 10 µM'),
  ('CCOC(=O)N1CCc2cc3c(cc2C1c1ccncc1)OCCO3 (centres undefined)', '> 10 µM');
